Origin of values: patent US20260226037A1

System: MES-SA/DX5 cells
ASSAY INFO: XTT cytotoxicity, MES-SA/DX5
Type: cell-based
TEST SETTINGS: MES-SA/DX5 / MES-SA
Listed below: IC50 ratio between resistant and non-resistant cells values for each entry.
No unit in the answer, please; the number alone is enough.

[ask] Sample Cc1c(C(=O)OCCCCO)oc2c1C(=O)CC(c1ncco1)C2 (stereo not drawn) — what was its IC50 ratio between resistant and non-resistant cells?
[reply] 0.700

###

Test system: MES-SA/DX5 cells
ASSAY INFO: XTT cytotoxicity, MES-SA/DX5
Type: cell-based
TEST SETTINGS: MES-SA/DX5 / MES-SA
Description: The cytotoxic activity of the novel family was evaluated against various tumor cells, including myeloma cells, acute lymphoblastic leukemia cells, acute monocytic leukemia cells, chronic myelogenous leukemia cells, pancreatic cancer cells, breast cancer cells, uterine sarcoma cells, cervix adenocarcinoma cells, ovary cancer cells, melanoma cells, osteosarcoma cells, prostate cancer cells, lung cancer cells, neuroblastoma cells and colorectal adenocarcinoma cells by XTT assay.
Where a SMILES comes first, the peptide text is derived from it. [ ]: non-standard residue; d: D form. The star is where a group is joined. Dolaproine = CO[C@@H]([C@@H]1CCCN1)[C@@H](C)C(=O)O; Dil = CC[C@H](C)[C@H](NC)[C@@H](CC(=O)O)OC; X1 = C[C@@H](N*)[C@@H](O)c1ccccc1; NMeV = CN[C@H](C(=O)O)C(C)C
PROPERTY MEASURED: IC50 ratio between resistant and non-resistant cells
No unit in the answer, please; the number alone is enough.

MOLECULE	VALUE OBSERVED
Cc1c(C(=O)OC2CCCC2)[nH]c2c1C(=O)CC(c1ncco1)C2 (centres unmarked)	1.145
CC[C@H](C)[C@@H]([C@@H](CC(=O)N1CCC[C@H]1[C@H](OC)[C@@H](C)C(=O)N[C@H](C)[C@@H](O)c1ccccc1)OC)N(C)C(=O)[C@@H](NC(=O)[C@@H](NC)C(C)C)C(C)C [MMAE, reference compound] (H-[NMeV]V[Dil][Dolaproine]-X1)	165.037
CCCCCOC(=O)c1[nH]c2c(c1C)C(=O)CC(c1nccs1)C2 (centres unmarked)	1.158
Cc1c(C(=O)OCCCCO)[nH]c2c1C(=O)CC(c1ncco1)C2 (centres unmarked)	1.153
CCCCCOC(=O)c1[nH]c2c(c1C)C(=O)CC(c1ccco1)C2 (centres unmarked) [SMS001, reference compound]	0.241

We now examine a further molecule.
[ask] Sample CC[C@]1(O)C[C@H]2CN(CCc3c([nH]c4ccccc34)[C@@](C(=O)OC)(c3cc4c(cc3OC)N(C=O)[C@H]3[C@@](O)(C(=O)OC)[C@H](OC(C)=O)[C@]5(CC)C=CCN6CC[C@]43[C@@H]65)C2)C1 [Vincristine, reference compound] — what was its IC50 ratio between resistant and non-resistant cells?
[reply] 3.684
